Value source: ChEMBL document CHEMBL1137572

target: Cytochrome P450 2C9 (Homo sapiens, UniProt P11712); assay: Inhibition of recombinant CYP2C9 by fluorescence inhibition assay
Sequence (P11712 whole entry): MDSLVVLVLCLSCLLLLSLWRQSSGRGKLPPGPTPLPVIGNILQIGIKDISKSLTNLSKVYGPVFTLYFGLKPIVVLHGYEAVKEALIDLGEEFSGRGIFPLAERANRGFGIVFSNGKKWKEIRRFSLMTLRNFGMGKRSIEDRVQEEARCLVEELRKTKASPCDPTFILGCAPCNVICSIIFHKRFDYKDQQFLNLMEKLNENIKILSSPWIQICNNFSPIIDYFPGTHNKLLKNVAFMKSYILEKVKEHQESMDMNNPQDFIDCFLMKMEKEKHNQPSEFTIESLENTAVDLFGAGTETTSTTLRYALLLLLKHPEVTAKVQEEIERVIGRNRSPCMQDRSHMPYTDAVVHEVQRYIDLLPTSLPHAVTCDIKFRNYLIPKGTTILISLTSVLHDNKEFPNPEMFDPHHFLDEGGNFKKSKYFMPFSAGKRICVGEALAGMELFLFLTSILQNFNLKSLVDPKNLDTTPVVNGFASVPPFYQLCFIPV
Sorting guide: entries reporting IC50 beneath 20 µM go in the Fulfilled pile, the rest go in the Not fulfilled pile.

Does the reported IC50 of the following compound sit strictly below 20 µM? Cc1ccc(-c2cc(C(F)(F)F)nn2-c2ccc(S(N)(=O)=O)cc2)cc1 [CELECOXIB]
Fulfilled

Thanks! And Cc1ccc(-c2cc(-c3ccccc3)nn2-c2ccc(S(N)(=O)=O)cc2)cc1 ?
Fulfilled

Then Cc1ccc(-c2cc(C(F)(F)F)nn2-c2ccc(S(C)(=O)=O)cc2)cc1 ?
Fulfilled

Follow-up item: O=C(O)Cc1ccc(-n2nc(C(F)(F)F)cc2-c2ccc(C(F)(F)F)cc2)cc1
Not fulfilled

Then CCOC(=O)c1ccc(-n2nc(C(F)(F)F)cc2-c2ccc(C)cc2)cc1 ?
Not fulfilled

// repeat for NS(=O)(=O)c1ccc(-n2nc(C(F)(F)F)cc2-c2ccc(C(F)(F)F)cc2)cc1 and report
Fulfilled

Consider next the compound Cc1ccc(-c2cc(C(F)(F)F)nn2-c2ccc(C)cc2)cc1 in the same way.
Not fulfilled

Same lookup for CSc1ccc(-n2nc(C(F)(F)F)cc2-c2ccc(C)cc2)cc1 , please.
Not fulfilled

Also, CCOC(=O)c1ccc(-n2nc(C(F)(F)F)cc2-c2ccc(C(F)(F)F)cc2)cc1 please.
Not fulfilled

Please answer likewise for Cc1ccc(-c2cc(C(F)(F)F)nn2-c2ccc(C(=O)O)cc2)cc1
Not fulfilled

Then this compound: Cc1ccc(-c2cc(C(F)(F)F)nn2-c2ccc(CC(=O)O)cc2)cc1
Not fulfilled

Also check Cc1ccc(-c2cc(C(F)(F)F)nn2-c2ccc([S+](C)[O-])cc2)cc1 (centres undefined)
Not fulfilled

Next compound up: O=C(O)c1ccc(-n2nc(C(F)(F)F)cc2-c2ccc(C(F)(F)F)cc2)cc1
Not fulfilled

Now the same for Cc1ccc(-c2cc(C(=O)O)nn2-c2ccc(S(N)(=O)=O)cc2)cc1
Not fulfilled
